- assay.details: DRUGMATRIX: Atrial Natriuretic Factor (ANF) radioligand binding (ligand: [125I] ANF (rat))
- Type: cell membranes, Cavia porcellus, Dunkin-Hartley, Adrenal gland, Membrane
- assay.setup: Not Active = under 50% inhibition at 10 µM
measurement.type: Ki

Examples with their reported Ki follow.
> print(dat)
                                   compound  measurement
1  COc1ccc2[nH]cc(CCNC(C)=O)c2c1 [MELATONIN]   Not Active
2  O=C1Nc2ccc(Cl)cc2C(c2ccccc2Cl)=NC1O (stereo not drawn) [LORAZEPAM]   Not Active
3  O=C1C(CC[S+]([O-])c2ccccc2)C(=O)N(c2ccccc2)N1c1ccccc1 (stereo not drawn) [SULFINPYRAZONE]   Not Active
4  CCCOc1ccc(C(=O)OCCN(CC)CC)cc1N [PROPARACAINE]   Not Active
5             C=CCc1ccc(O)c(OC)c1 [EUGENOL]   Not Active

### Prompt For the compound COc1ccc(C2C(=O)c3ccccc3C2=O)cc1 [ANISINDIONE] , report Ki.
### Response Not Active
